B1: TPR t1 (parent)
chain: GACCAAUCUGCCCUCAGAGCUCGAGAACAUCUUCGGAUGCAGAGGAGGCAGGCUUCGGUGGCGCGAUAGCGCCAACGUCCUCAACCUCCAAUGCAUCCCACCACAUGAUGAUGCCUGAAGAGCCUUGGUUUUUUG

# Variants of: B1
# TEST_SUMMARY: polymerase ribozyme fitness, log enrichment relative to wild type (log ratio); higher = more active; in vitro selection for triplet polymerase activity
# Lookup of reported polymerase ribozyme fitness (log ratio) keyed by entry
METRIC: polymerase ribozyme fitness (log ratio)

VARIANT	RECORDED_MEASUREMENT
G47U G71A	-1.21
C15G C40A U92C	-4.63
A6C U38A A43U	-3.16
C20A C34A A41C U109A	-4.4
C8G G45A C56U C72U C94A C101A	-2.54
C13G U32C C53A C70G	-3.88
G42A C49G	-1.71
G61C C79U C101G	-1.64
C13A G48A U109A G120C	-5.29
C11U U78G A95C G113U C114G	-4.56
A6G G48U U54A C79U U87A	-4.01
G10U C76A	-1.51
C4A A16U C72U A95C	-3.63
A29G G47C C53A U59A	-2.24
G39A G51U A83G A95C C124A	-2.8
A2C U106A	-1.44
A2U C22U C86U G110U	-6.04
C12U C124G	2.23
C53G C82A C94U U130G	-0.77
C79A C123U	0.304
C40U C62U	-0.882
C73A C94A	-0.492
